Values were extracted from patent US9073876B2.

Tested on: leukotriene pathway in human whole blood (LTB4 levels)
protocol_description: Human whole blood assay (LTB4)
Type: cell-based
stated_conditions: human whole blood diluted 1:1 in RPMI, stimulated with calcium ionophore A23187; single replicate
pIC50 values for the compounds below.
API: returns pIC50 as number; meaning -log10 of concentration in mol/L.

Here are 3 compounds together with their reported answers.
compound	pIC50
CC(C)(C)OC(=O)N1CCCC(COc2c(C3CCC3)ccc(-c3cnc(N)cn3)c2F)C1 (stereo not shown) [Example 249]	5.90
Nc1cnc(-c2ccc(C3CCC3)c(Oc3ncccn3)c2F)cn1 [Example 118]	7.18
COC(=O)c1ccc2oc(COc3c(C4CCC4)ccc(-c4cnc(N)cn4)c3F)nc2c1 [Example 262]	6.80

Okay, next one:
get_value(item= Nc1cnc(-c2ccc(C3CCC3)c(OCC(O)Cn3ccnn3)c2F)cn1 (racemic) [Example 63] , readout=pIC50) returns 6.67

###

System: leukotriene pathway in human whole blood (LTB4 levels)
protocol_description: Human whole blood assay (LTB4)
Assay type: cell-based
stated_conditions: human whole blood diluted 1:1 in RPMI, stimulated with calcium ionophore A23187; single replicate
Counter-ions that a name gives are not always drawn.
Our labelling divides records by IC50 into ranges: 0 (below 200 nM), 1 (200 nM to below 600 nM), 2 (600 nM or more)

molecule	assigned_class
Nc1cnc(-c2ccc(C3CCCC3)c(OCc3ccccc3)c2F)cn1	2
COC(=O)c1coc(COc2c(C3CCC3)ccc(-c3cnc(N)cn3)c2F)n1 [Example 281, trifluoroacetic acid salt]	1
Nc1cnc(-c2ccc(C3CCC3)c(OCCc3ccc(C(=O)O)cc3)c2F)cn1	2
CC(C)(C)c1ccc(-c2cnc(N)cn2)c(F)c1Oc1nccc(N)n1	0

Req: Kindly identify the class of Nc1cnc(-c2ccc(C3CCC3)c(Oc3nccc(-c4cccs4)n3)c2F)cn1 .
Resp: 0

Req: Band for CC(C)(C)Cc1ccc(-c2cnc(N)cn2)c(F)c1Oc1ncccn1 ?
Resp: 1

Req: Assign a category based on measured IC50 for CS(=O)(=O)c1ccc(COc2c(C3CCC3)ccc(-c3cnc(N)cn3)c2F)cc1 and give only the class name.
Resp: 2

Req: Hello team, could you let me know which band the following molecule falls into: Cc1cc(COc2c(C3CCC3)ccc(-c3cnc(N)cn3)c2F)no1 [Example 291, trifluoroacetic acid salt]
Resp: 1

Req: # classify by IC50 band: COc1ccc(S(F)(F)(F)(F)F)cc1COc1c(C2CCC2)ccc(-c2cnc(N)cn2)c1F
Resp: 2

Req: Hey, which category is COc1c(C2CCC2)ccc(-c2cnc(N)c(C#N)n2)c1F in, do you know?
Resp: 2

Req: Kindly state the category for this molecule: Nc1cnc(-c2ccc(C3CCC3)c(OCC(O)CNc3cncnc3)c2F)cn1 (racemic)
Resp: 1

Req: Band for Nc1cnc(-c2ccc(C3CCC3)c(OCc3ccccc3C(F)(F)F)c2F)cn1 ?
Resp: 1

Req: Pick a category. Item: N#Cc1cccc(COc2c(C3CCC3)ccc(-c3cnc(N)cn3)c2F)c1
Resp: 1

Req: Hi there! Could you help me figure out the category for Nc1cnc(-c2ccc(C3CCC3)c(Oc3ncc(-c4cnc(N)nc4)cn3)c2F)cn1 please?
Resp: 0

Req: Form: Item = Nc1cnc(-c2ccc(C3CCC3)c(Oc3nccc(C(=O)O)n3)c2F)cn1 ; Class = ?
Resp: 2

Req: Record CS(=O)(=O)c1cccc(COc2c(C3CCC3)ccc(-c3cnc(N)cn3)c2F)c1 — which class?
Resp: 2

Req: Category of Nc1cnc(-c2ccc(C3CCC3)c(OCCO)c2F)cn1 :
Resp: 1

Req: Class (by measured IC50) for O=C(O)Cc1ccc(COc2c(C3CCC3)ccc(-c3cnc4c(c3)OCCN4)c2F)cc1
Resp: 1

Req: Band for the recorded IC50 of CS(=O)(=O)c1ccc(Oc2c(C3CCC3)ccc(-c3cnc(N)cn3)c2F)cc1 ?
Resp: 1

Req: Would you mind sorting N#Cc1ccnc(Oc2c(C3CCC3)ccc(-c3cnc(N)cn3)c2F)n1 into the appropriate category?
Resp: 2

Req: Class? Entry: Nc1cnc(-c2ccc(C3CCC3)c(Oc3cc(-c4ccccc4)ncn3)c2F)cn1
Resp: 0

Req: Textbook exercise: identify the category of the molecule given here, CS(=O)(=O)c1ccnc(Oc2c(C3CCC3)ccc(-c3cnc(N)cn3)c2F)n1 , according to its measured value.
Resp: 2

###

Tested on: leukotriene pathway in human whole blood (LTB4 levels)
protocol_description: Human whole blood assay (LTB4)
Format: cell-based
stated_conditions: human whole blood diluted 1:1 in RPMI, stimulated with calcium ionophore A23187; single replicate
Counter-ions that a name gives are not always drawn.
This listing pairs compounds with measured log10(IC50).
The base-10 logarithm of IC50, taken with IC50 in nM, is what appears here.

Here's what some known entries look like.
compound	system_tested	log10(IC50)
Cc1nc(N)cc(Oc2c(C3CCC3)ccc(-c3cnc(N)cn3)c2F)n1 [Example 140, trifluoroacetate salt]	leukotriene pathway in human whole blood (LTB4 levels)	1.07
Nc1cnc(-c2ccc(C3CCC3)c(OCc3ccc(S(F)(F)(F)(F)F)cc3F)c2F)cn1	leukotriene pathway in human whole blood (LTB4 levels)	3.11
Nc1cnc(-c2ccc(C3CCC3)c(Oc3ccnnc3)c2F)cn1	leukotriene pathway in human whole blood (LTB4 levels)	2.52
Nc1cnc(-c2ccc(C3CCC3)c(OCCNc3cnccn3)c2F)cn1 [Example 295, trifluoroacetic acid salt]	leukotriene pathway in human whole blood (LTB4 levels)	2.17
CN(C)S(=O)(=O)c1ccc(COc2c(C3CCC3)ccc(-c3cnc(N)cn3)c2F)cc1	leukotriene pathway in human whole blood (LTB4 levels)	2.76
COC(=O)c1ccc(Oc2c(C3CCC3)ccc(-c3cnc(N)cn3)c2F)cc1	leukotriene pathway in human whole blood (LTB4 levels)	2.83

Reported log10(IC50) of Nc1cnc(-c2ccc(C3CCC3)c(OCc3ccncc3)c2F)cn1 : 3.36

Item: Cc1cc(Oc2c(C3CCC3)ccc(-c3cnc(N)cn3)c2F)ccc1S(C)(=O)=O | log10(IC50): 2.61

###

system_tested: human FLAP (Homo sapiens (Human), UniProt P20292)
Sequence (P20292 whole entry): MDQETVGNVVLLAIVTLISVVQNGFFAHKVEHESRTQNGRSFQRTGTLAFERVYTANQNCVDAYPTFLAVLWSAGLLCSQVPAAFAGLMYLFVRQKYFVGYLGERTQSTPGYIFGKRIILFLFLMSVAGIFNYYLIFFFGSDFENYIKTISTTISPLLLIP
Lab note: anything with Ki below 40 nM is marked Met; values at 40 nM or higher are marked Not met.

compound	system_tested	assigned_class
Nc1cnc(-c2ccc(C3CCC3)c(Oc3ccnc(N)n3)c2F)cn1	human FLAP (Homo sapiens (Human), UniProt P20292)	Met

Req: Does Nc1cnc(-c2ccc(C3CCC3)c(OCc3ccccc3)c2F)cn1 have Ki strictly under 40 nM?
Resp: Met

###

system_tested: human FLAP (Homo sapiens (Human), UniProt P20292)
pKi: −log10 of the molar value. Structures can show the parent of a compound that is named as a salt.
Assign T to entries whose pKi meets or exceeds 7; assign F to the rest.

Solved entries:
compound	assigned_class
Nc1ccnc(Oc2c(C3CCC3)ccc(-c3cc4cc[nH]c4nn3)c2F)n1 [Example 270]	F
Nc1cnc(-c2ccc(C3CCC3)c(OCc3ccc(Cl)cn3)c2F)cn1 [Example 289, trifluoroacetic acid salt]	F
Nc1cnc(-c2ccc(C3CCC3)c(Oc3cc(N)ncn3)c2F)cn1 [Example 136]	T
Cc1cc(C)nc(Oc2c(C3CCC3)ccc(-c3cnc(N)nc3)c2F)n1 [Example 167]	T
COc1cc(Oc2c(C3CCC3)ccc(-c3ccc(N)nn3)c2F)ncn1 [Example 232]	F

Req: Determine whether measured pKi meets or exceeds 7 for Nc1cnc(-c2ccc(C3CCC3)c(Oc3cc(N)nc(Cc4ccccc4)n3)c2F)cn1 [Example 146]
Resp: T

Req: Reported pKi reaches at least 7 for CS(=O)(=O)c1ccc(COc2c(C3CCC3)ccc(-c3cnc(N)cn3)c2F)cc1 [Example 7] ?
Resp: T

Req: State whether the measured pKi reaches 7, counting equality as reaching it, for Nc1cnc(-c2ccc(C3CCC3)c(OCc3ccccc3F)c2F)cn1 [Example 30]
Resp: F

Req: Threshold query (pKi >= 7) on Fc1c(-c2cnc3[nH]ccc3n2)ccc(C2CCC2)c1Oc1ncccn1 [Example 230]
Resp: T

Req: Quick check: does Nc1cnc(-c2ccc(C3CCC3)c(OCC(O)CN3CCOCC3)c2F)cn1 (racemic) [Example 255] have pKi greater than or equal to 7?
Resp: F

Req: Reported pKi reaches at least 7 for CS(=O)(=O)c1ccc(Oc2c(C3CCC3)ccc(-c3cnc(N)cn3)c2F)c(Cl)c1 [Example 123] ?
Resp: T

Req: I'd appreciate it if you could say whether CN(C)CCNc1nccc(Oc2c(C3CCC3)ccc(-c3cnc(N)cn3)c2F)n1 [Example 156, hydrochloride] has pKi at least equal to 7.
Resp: F

###

Listed here are compounds together with their documented IC50.
Test system: leukotriene pathway in human whole blood (LTB4 levels)
protocol_description: Human whole blood assay (LTB4)
Assay type: cell-based
stated_conditions: human whole blood diluted 1:1 in RPMI, stimulated with calcium ionophore A23187; single replicate
Give a bare numeral; the unit nM is implied.

compound	attribute_measured	readout_unit	value_reported
COc1ccnc(Oc2c(C3CCC3)ccc(-c3cnc(N)cn3)c2F)n1 [Example 93]	IC50	nM	30.8
Nc1cnc(-c2ccc(C3CCC3)c(OCc3ccccc3)c2F)cn1 [Example 83]	IC50	nM	605
Cc1cc(Oc2c(C3CCC3)ccc(-c3cnc(N)cn3)c2F)nc(N(C)C)n1 [Example 236]	IC50	nM	37.1

For Oc1c(C2CCC2)ccc(-c2cnc3c(c2)OCCN3)c1F [Example 185] the compound record lists IC50 as 1010
